Measured values drawn from ChEMBL document CHEMBL4888484 for this set.

Parameter: % Inhibition. Scope: all listed entries.
Tested on: Plasmodium falciparum
Experiment: Confirmatory screen in NF54 nanoGlo assay, in single point, at 2uM, 72h
Assay type: functional, Erythrocyte
Conditions: timepoint 72 hour
Out of some 4,800 compounds screened, about 420 (8.8%) showed an effect of 50% or more. The sample as a whole holds a higher share of strong results than the screen did.
Parameter: % Inhibition (%)

>>> recorded_result("CCn1c(=O)c(N2CCN(C(=O)Nc3cccc(C(F)(F)F)c3)CC2)nc2ccccc21")
-2
>>> recorded_result("COc1ccc2oc(-c3ccc(CNC(=O)c4ccc(C)cc4)cc3)nc2c1")
-3
>>> recorded_result("Brc1ccc2c(c1)CN(Cc1c[nH]cn1)CCO2")
4
>>> recorded_result("CC(C)(NCc1ccccc1Cl)C(=O)O")
4

---

System: Plasmodium falciparum
Assay: Confirmatory screen in NF54 nanoGlo assay, in single point, at 2uM, 72h
Type: functional, Erythrocyte
Details: timepoint 72 hour
About 420 (8.8%) of roughly 4,800 compounds showed an effect of 50% or more. The list comes from a sample in which strong results are over-represented; it also holds close analogues and randomly drawn compounds.
Parameter: % Inhibition (%)

>>> recorded_result("Cc1cccc(CN2CCC[C@H](C(=O)c3ccc4c5c(cccc35)CC4)C2)n1")
63
>>> recorded_result("N#Cc1ccc(C(=O)N[C@H]2CCCc3c2cnn3-c2ccccn2)cc1")
2
>>> recorded_result("CC1CC(NS(=O)(=O)CCCC(F)(F)F)CCN1 (stereo not given)")
-4
>>> recorded_result("CCn1cc(C#N)c(=O)c2cc(F)c(N3CCN(Cc4ccccc4)CC3)cc21")
69
>>> recorded_result("COc1ccc(-[n+]2c(-c3ccc(-c4ccccc4)cc3)cn3c2COCC3)cc1")
66
>>> recorded_result("c1cc(CN2CCN(C3CCCCCC3)CC2)ccn1")
-18
>>> recorded_result("Cn1c(N2CCN(Cc3ccc4c(c3)OCO4)CC2)cc(=O)n(C)c1=O")
-12
>>> recorded_result("COc1ccc(CCc2nnc3n2CCOC3)cc1")
-4
>>> recorded_result("COc1cc(Br)ccc1C1NC(=O)C2COCCN21 (stereo not given)")
7
>>> recorded_result("CCn1cc(-c2nc(-c3ccccc3C)no2)c(=O)c2cc(F)c(N3CCCCC3)cc21")
47

---

System: Plasmodium falciparum
Assay: Confirmatory screen in NF54 nanoGlo assay, in single point, at 2uM, 72h
Format: functional, Erythrocyte
Details: timepoint 72 hour
Among all 4,800 compounds or so, about 420 (8.8%) showed an effect of 50% or more. The full list was thinned out, with strong results kept by preference.
Parameter: % Inhibition (%)

>>> recorded_result("CN(Cc1ccc(F)cc1Cl)[C@H]1CCc2nnc(C3CCOCC3)n2CC1")
-13
>>> recorded_result("CCOC(=O)c1cc(-c2ccccc2)n(NC(=O)COc2ccc(Cl)cc2)c1C")
-11
>>> recorded_result("O=C(c1ccccc1OCC1CC1)N1CC(O)C1")
-5
>>> recorded_result("C[N+]12CCCCC1C(OC(=O)C1(c3ccccc3)CCCC1)CCC2 (stereo not drawn)")
96
>>> recorded_result("N#CC(c1ccc(Cl)cc1)N1N=C(c2ccccc2)CC1c1ccccc1 (stereo not drawn)")
4
>>> recorded_result("Cc1cccc(CN(C(=O)C2CCCC2)c2ccc(CC(=O)NCCN3CCOCC3)cc2)c1")
9
>>> recorded_result("COCCc1cc(NC(=O)Nc2sc(-c3ccccc3)nc2C)n(C)n1")
14
>>> recorded_result("COc1cccc(-c2nc3n(c2C(=O)NCC(C)C)CCS3(=O)=O)c1")
-2
>>> recorded_result("O=C(NC1CCCCC1)c1cc2c(Cl)ccc3c2n1CCO3")
-10
>>> recorded_result("COc1ccc(C2=NN(C(C#N)c3cccc(OC)c3O)C(c3ccccc3)C2)cc1 (stereo not drawn)")
4
>>> recorded_result("CCOC(=O)c1cn(CC)c2cc(NC3CCCCC3)c(F)cc2c1=O")
78
>>> recorded_result("COc1ccnc(CN2CC[C@](C)(O)[C@H](O)C2)c1")
-2
>>> recorded_result("C#CCN1C(=O)N[C@@](CC)(C(C)C)C1=O")
10
>>> recorded_result("C[C@@]12CCCCN1CCCc1c2[nH]c2ccccc12")
-15
>>> recorded_result("Oc1ccccc1CCN[C@H]1CCc2ccc(F)cc21")
98
>>> recorded_result("CCOC(=O)c1ncn(C2CCCCC2)c1N")
1
>>> recorded_result("O=C(Cc1ccc(N(Cc2cccc(F)c2)C(=O)C2CCCC2)cc1)NCCN1CCCCC1")
54
>>> recorded_result("CN1CCN([C@H]2CCN(c3ccnc4ccc(Cl)cc34)C[C@H]2CCCO)CC1")
26

---

Parameter: % Inhibition. Scope: all listed entries.
Test system: Plasmodium falciparum
Test: Confirmatory screen in NF54 nanoGlo assay, in single point, at 2uM, 72h
Type: functional, Erythrocyte
Details: timepoint 72 hour
The whole screen tested about 4,800 compounds, of which about 420 (8.8%) showed an effect of 50% or more. For the sample, strong results were picked, then their nearest neighbours and some compounds at random.
Parameter: % Inhibition (%)

>>> recorded_result("Cc1ccc(-c2nc3c(c(=O)n2CC(=O)NC[C@H]2CCCO2)CCN(Cc2ccccc2)C3)cc1")
-9
>>> recorded_result("Cc1ccc(NS(=O)(=O)c2ccc(NC(=O)Cc3ccccc3)cc2)cc1C")
2
>>> recorded_result("O=C(NC1CCN(Cc2ccccc2)CC1)c1cn[nH]c1-c1ccccc1")
-3
>>> recorded_result("Cc1ccc(S(=O)(=O)Nc2c(S(=O)(=O)c3ccc(C)cc3)c3nc4ccccc4nc3n2CCC(C)C)cc1")
98

---

System: Plasmodium falciparum
Assay: Confirmatory screen in NF54 nanoGlo assay, in single point, at 2uM, 72h
Type: functional, Erythrocyte
Conditions: timepoint 72 hour
In all, about 4,800 compounds went through this assay and about 420 (8.8%) showed an effect of 50% or more. The list comes from a sample in which strong results are over-represented; it also holds close analogues and randomly drawn compounds.
Parameter: % Inhibition. Scope: all listed entries.
Parameter: % Inhibition

>>> recorded_result("CC(C)[C@@H]1CC[C@H](C)C[C@H]1OC(=O)Cn1cc(-c2ccc(Cl)cc2)[n+]2c1CCC2")
"84%"
>>> recorded_result("c1csc(-c2noc(Cc3c[nH]c4ccccc34)n2)c1")
"21%"
>>> recorded_result("O=C1CCCC1C(c1ccccc1)N(C1=NS(=O)(=O)c2ccccc21)c1ccccc1 (stereo not drawn)")
"-10%"
>>> recorded_result("C[C@H]1CCCN(c2nc(-c3ccccn3)nc3ccccc23)C1")
"97%"
>>> recorded_result("CCn1nc(C(=O)N(C2CCCCC2)C2CC2)c2ccccc2c1=O")
"-10%"
>>> recorded_result("COc1ccc2c(c1)CCN2S(=O)(=O)c1ccc2c(c1)OCCO2")
"-4%"
>>> recorded_result("Cc1cc(C)n(S(=O)(=O)c2ccc3c(c2)OCCO3)n1")
"-3%"
>>> recorded_result("Brc1cncnc1N1CCC[C@H](c2nnn[nH]2)C1")
"-15%"
>>> recorded_result("C1CCC(Nc2nc3nonc3nc2N2CCCCC2)CC1")
"1%"
>>> recorded_result("CC(C)(C)CCN1CCN(S(=O)(=O)C[C@H]2CCCS(=O)(=O)C2)CC1")
"-3%"
>>> recorded_result("CC(C)c1cccc(CN2C(=O)N[C@]3(CC(C)(C)OC3(C)C)C2=O)n1")
"-6%"
>>> recorded_result("CCCCn1nc(NC(=O)c2cc(C3CC3)[nH]n2)cc1C")
"-2%"
>>> recorded_result("Cc1cccc(C)c1NC(=O)c1cc(-c2cccc3ccccc23)[nH]n1")
"2%"
>>> recorded_result("NC1CC(NCCc2cccc3cccnc23)c2ccccc21 (stereo not drawn)")
"43%"
>>> recorded_result("O=C(Nc1ccccc1)c1ccc(Nc2ncc(-c3cccc(F)c3)cn2)cc1")
"-3%"
>>> recorded_result("COc1ccccc1-n1cnc2cc(C(=O)N3CCCC3)ccc2c1=O")
"-4%"
>>> recorded_result("COc1ccc(-n2c(C)nn(Cc3ccccc3)c2=O)cc1")
"-11%"
>>> recorded_result("C[C@H]1CCCN(S(=O)(=O)NCC(=O)Nc2ccccn2)C1")
"-15%"
>>> recorded_result("Cc1nn(Cc2ccccc2)c2c1C(c1cccc(Cl)c1Cl)c1c(C)nn(Cc3ccccc3)c1O2")
"9%"
>>> recorded_result("COc1ccc(CC(=O)NCCn2c(C(F)(F)F)nc3ccccc32)cc1")
"42%"
>>> recorded_result("Cc1nn(C)c2c(N3CCOCC3)nc(C3CC3)nc12")
"-8%"
>>> recorded_result("Cn1ccnc1CN1CCC[C@@](O)(CNS(=O)(=O)c2cccs2)CC1")
"-10%"
>>> recorded_result("CC[n+]1c(/C=C/N(C)c2ccccc2)oc2ccc(-c3ccccc3)cc21")
"89%"
>>> recorded_result("COc1cccc(CNCc2ccc3c(c2)OCO3)c1OCc1ccc(Cl)cc1Cl")
"-3%"
>>> recorded_result("Nc1nc(N2CCN(c3ccc(F)c(Cl)c3)CC2)cc([C@H]2C[C@@H](N)C2)n1")
"32%"
>>> recorded_result("CN(CC(F)(F)F)S(=O)(=O)c1ccc(C(=O)O)cc1")
"-5%"
>>> recorded_result("O=C(C1CCCC2CCCCC21)N1CCN(c2ncccn2)CC1 (stereo not drawn)")
"-8%"
>>> recorded_result("CCNC(=O)C1Cc2ccc(OC)cc2N2CCN(c3ccc(OC)cc3)CC12 (stereo not drawn)")
"2%"
